Reported kcat/Km (Hz/M) values for a set of proteins
- target-under-test: T1, Abz-LAETGK(Dnp)-CONH2
- T1 chain: LAETGK
Non-standard residues stand in square brackets, D forms with d. No end group written: not given here. *: point of attachment. Dnp = O=[N+]([O-])c1ccc(*)c([N+](=O)[O-])c1; 2Abz = Nc1ccccc1C(=O)O
Reply numerically in Hz/M, unit not repeated.

Answered examples (2):
[
  {
    "protein": "eSrtA(2A-6) (protein) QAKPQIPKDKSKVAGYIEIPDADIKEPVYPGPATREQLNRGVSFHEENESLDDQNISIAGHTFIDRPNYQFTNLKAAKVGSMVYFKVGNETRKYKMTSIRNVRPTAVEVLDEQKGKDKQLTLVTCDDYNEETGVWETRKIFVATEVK",
    "quantity-unit": "Hz/M",
    "observed-value": 4130
  },
  {
    "protein": "2A.6C (protein) QAKPQIPKDKSKVAGYIEIPDADIKEPVYPGPATREQLNRGVSFHEENESLDDQNISIAGHTFIDRPNYQFTNLKAAKPGSMVYFKVGNETRIYKMTSIRKVRPTAVEVLDEQKGKDKQLTLVTCDDYNEETGVWETRKIFVATEVK",
    "quantity-unit": "Hz/M",
    "observed-value": 2380
  }
]

The record that follows has no kcat/Km (Hz/M) shown yet.
Query: Give the measured kcat/Km (Hz/M) for eSrtA(2A-3.5) (enzyme) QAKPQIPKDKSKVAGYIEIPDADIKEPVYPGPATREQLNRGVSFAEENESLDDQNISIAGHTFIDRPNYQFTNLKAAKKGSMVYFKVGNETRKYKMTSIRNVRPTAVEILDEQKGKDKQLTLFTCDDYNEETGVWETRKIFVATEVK
Result: 175

Origin of measurements: patent US20160208233A1
